Reference for the values: patent US20230391739A1

Examples of molecules with documented IC50 follow.
# test_system: mouse TRPM3α2 (mTRPM3) ion channel (Mus musculus, UniProt J9SQF3)
# Construct: expressed in transfected cells; host or cells: flip-in HEK293
# Sequence (J9SQF3 1-1709 isoform J9SQF3-12): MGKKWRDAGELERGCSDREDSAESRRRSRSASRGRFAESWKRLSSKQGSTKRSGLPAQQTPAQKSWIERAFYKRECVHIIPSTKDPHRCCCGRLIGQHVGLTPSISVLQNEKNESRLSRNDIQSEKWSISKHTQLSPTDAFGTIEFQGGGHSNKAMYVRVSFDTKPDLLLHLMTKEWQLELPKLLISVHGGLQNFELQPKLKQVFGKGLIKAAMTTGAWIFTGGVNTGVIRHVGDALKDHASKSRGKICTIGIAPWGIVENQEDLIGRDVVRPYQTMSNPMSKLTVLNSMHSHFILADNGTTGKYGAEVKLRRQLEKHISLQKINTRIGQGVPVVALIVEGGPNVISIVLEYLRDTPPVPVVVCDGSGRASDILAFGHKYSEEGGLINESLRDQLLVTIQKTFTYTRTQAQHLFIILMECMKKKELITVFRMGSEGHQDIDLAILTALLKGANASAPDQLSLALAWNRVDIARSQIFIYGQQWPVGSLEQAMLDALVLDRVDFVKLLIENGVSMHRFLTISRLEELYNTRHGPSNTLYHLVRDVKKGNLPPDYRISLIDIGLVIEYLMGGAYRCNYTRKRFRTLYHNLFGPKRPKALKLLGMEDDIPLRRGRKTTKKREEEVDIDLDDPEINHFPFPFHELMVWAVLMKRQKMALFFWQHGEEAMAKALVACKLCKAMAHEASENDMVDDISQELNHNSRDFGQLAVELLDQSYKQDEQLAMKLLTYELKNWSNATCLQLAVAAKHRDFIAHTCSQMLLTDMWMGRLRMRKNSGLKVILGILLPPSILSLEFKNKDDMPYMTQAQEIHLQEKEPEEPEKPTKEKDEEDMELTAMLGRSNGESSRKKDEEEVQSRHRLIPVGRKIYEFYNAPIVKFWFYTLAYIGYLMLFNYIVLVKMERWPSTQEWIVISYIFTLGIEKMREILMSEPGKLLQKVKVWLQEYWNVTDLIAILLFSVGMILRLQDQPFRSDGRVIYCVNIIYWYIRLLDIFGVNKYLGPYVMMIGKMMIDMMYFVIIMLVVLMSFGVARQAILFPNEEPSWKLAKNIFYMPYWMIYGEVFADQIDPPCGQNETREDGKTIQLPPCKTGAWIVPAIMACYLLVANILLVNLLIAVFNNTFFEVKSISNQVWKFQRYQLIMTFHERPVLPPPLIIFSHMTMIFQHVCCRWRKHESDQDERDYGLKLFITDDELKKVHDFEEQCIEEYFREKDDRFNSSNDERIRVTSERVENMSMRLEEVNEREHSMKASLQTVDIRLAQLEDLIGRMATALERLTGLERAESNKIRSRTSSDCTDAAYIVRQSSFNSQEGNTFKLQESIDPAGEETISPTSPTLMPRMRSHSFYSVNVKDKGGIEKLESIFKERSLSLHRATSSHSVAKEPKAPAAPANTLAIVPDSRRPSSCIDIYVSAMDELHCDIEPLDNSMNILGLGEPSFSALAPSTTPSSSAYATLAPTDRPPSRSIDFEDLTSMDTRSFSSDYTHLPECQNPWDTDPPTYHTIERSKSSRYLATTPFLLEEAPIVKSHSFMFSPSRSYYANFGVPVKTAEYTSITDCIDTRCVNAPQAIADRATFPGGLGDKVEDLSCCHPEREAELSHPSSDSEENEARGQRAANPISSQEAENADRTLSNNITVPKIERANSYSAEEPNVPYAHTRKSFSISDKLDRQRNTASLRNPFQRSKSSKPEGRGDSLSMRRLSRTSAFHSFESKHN
# test_name: TRPM3 ion channel driven Ca2+ uptake, Fluo-4 AM assay, PS-stimulated (mTRPM3)
# Assay type: cell-based
# measurement_setup: TRPM3 overexpressing flip-in HEK293 cells stimulated with Pregnenolone sulfate (PS) 50 μM, activity ranges A, B, C

Worked cases, answers included:
Dear colleague, I am looking for the recorded IC50 of the following molecule: Cc1oc2ccc(OCc3ccccc3)cc2c1C(=O)NC1CC(=O)N(C)C1 (stereo not shown)
1000 to 20000 nM

Dear colleague, I am looking for the recorded IC50 of the following molecule: CN1CCC(NC(=O)c2coc3ccc(OCc4ccccc4)cc23)CC1
1000 to 20000 nM

Dear colleague, I am looking for the recorded IC50 of the following molecule: Cc1oc2ccc(OCc3ccccc3)cc2c1C(=O)N[C@H]1CCCN(C2COC2)C1
1000 to 20000 nM

New cases:
Dear colleague, I am looking for the recorded IC50 of the following molecule: Cc1oc2ccc(OCc3ccccc3)cc2c1C(=O)NC1CCCCC1
< 1000 nM

Dear colleague, I am looking for the recorded IC50 of the following molecule: Cc1oc2ccc(OCc3cccc(F)c3)cc2c1C(=O)NS(=O)(=O)C1CC1
< 1000 nM

====

# test_system: mouse TRPM3α2 (mTRPM3) ion channel (Mus musculus, UniProt J9SQF3)
# test_name: TRPM3 ion channel driven Ca2+ uptake, Fluo-4 AM assay, PS-stimulated (mTRPM3)
# measurement_setup: TRPM3 overexpressing flip-in HEK293 cells stimulated with Pregnenolone sulfate (PS) 50 μM, activity ranges A, B, C
pIC50: −log10 of the molar value.
Examples of compounds with documented pIC50 follow.

Worked cases, answers included:
Dear colleague, I am looking for the recorded pIC50 of the following compound: Cc1oc2ccc(OCc3ccc(F)cc3)cc2c1C(=O)O
4.70 to 6.00

Dear colleague, I am looking for the recorded pIC50 of the following compound: Cc1oc2ccc(OCc3ccccc3)cc2c1C(=O)N[C@H]1C[C@H]2CC[C@@H](C1)N2
> 6.00

Dear colleague, I am looking for the recorded pIC50 of the following compound: Cc1oc2ccc(OCc3ccccc3)cc2c1C(=O)N[C@H]1CCNC1=O
> 6.00

Dear colleague, I am looking for the recorded pIC50 of the following compound: Cc1oc2ccc(OCc3ccccc3)cc2c1C(=O)NC1CC1
4.70 to 6.00

Now take the following compound into account.
Dear colleague, I am looking for the recorded pIC50 of the following compound: Cc1oc2ccc(OCc3ccccc3)cc2c1C(=O)NCc1ccccn1
4.70 to 6.00

====

# test_system: mouse TRPM3α2 (mTRPM3) ion channel (Mus musculus)
# test_name: TRPM3 ion channel driven Ca2+ uptake, Fluo-4 AM assay, PS-stimulated (mTRPM3)
# measurement_setup: TRPM3 overexpressing flip-in HEK293 cells stimulated with Pregnenolone sulfate (PS) 50 μM, activity ranges A, B, C
pIC50: −log10 of the molar value.
Examples of compounds with documented pIC50 follow.

Dear colleague, I am looking for the recorded pIC50 of the following compound: Cc1oc2ccc(OCc3cccc(OC(F)(F)F)c3)cc2c1C(=O)O [Cpd 028]
< 4.70

Dear colleague, I am looking for the recorded pIC50 of the following compound: Cc1oc2c(F)cc(OCc3ccccc3)cc2c1C(=O)NC1CNCC1(F)F (single isomer, unassigned) [Cpd 306-En 2]
4.70 to 6.00

Dear colleague, I am looking for the recorded pIC50 of the following compound: Cc1oc2ccc(OCc3ccccc3)cc2c1C(=O)NC1CCOCC1 [Cpd 088]
> 6.00

Dear colleague, I am looking for the recorded pIC50 of the following compound: Cc1oc2ccc(OC(CO)c3ccccc3)cc2c1C(=O)NC1(CO)CCOCC1 (single isomer, unassigned) [Cpd 317-En 2]
4.70 to 6.00

Dear colleague, I am looking for the recorded pIC50 of the following compound: Cc1oc2ccc(OCc3ccccc3)c(F)c2c1C(=O)NC1CNCC1(F)F (single isomer, unassigned) [Cpd 298-En 1]
> 6.00

New cases:
Dear colleague, I am looking for the recorded pIC50 of the following compound: CCN1CCC[C@H]1CNC(=O)c1c(C)oc2ccc(OCc3ccccc3)cc12 [Cpd 152]
4.70 to 6.00

Dear colleague, I am looking for the recorded pIC50 of the following compound: Cc1oc2ccc(OCc3ccccc3)c(F)c2c1C(=O)NC1CNCC1(F)F (single isomer, unassigned) [Cpd 298-En 2]
4.70 to 6.00

Dear colleague, I am looking for the recorded pIC50 of the following compound: Cc1oc2ccc(OCc3ccccc3)cc2c1C(=O)N1CCC(C(=O)OC(C)(C)C)CC1 [Cpd 237]
< 4.70

Dear colleague, I am looking for the recorded pIC50 of the following compound: Cc1oc2ccc(OCc3ccccc3)cc2c1C(=O)Nc1ccncc1 [Cpd 060]
> 6.00

Dear colleague, I am looking for the recorded pIC50 of the following compound: Cc1oc2ccc(OCc3ccc(C(F)(F)F)cc3)cc2c1C(=O)N[C@H]1CCNC1 [Cpd 202]
4.70 to 6.00
